Molecular target: intercellular adhesion molecule-1 (ICAM-1) (human, UniProt P05362 28-532)
Sequence (P05362 28-532): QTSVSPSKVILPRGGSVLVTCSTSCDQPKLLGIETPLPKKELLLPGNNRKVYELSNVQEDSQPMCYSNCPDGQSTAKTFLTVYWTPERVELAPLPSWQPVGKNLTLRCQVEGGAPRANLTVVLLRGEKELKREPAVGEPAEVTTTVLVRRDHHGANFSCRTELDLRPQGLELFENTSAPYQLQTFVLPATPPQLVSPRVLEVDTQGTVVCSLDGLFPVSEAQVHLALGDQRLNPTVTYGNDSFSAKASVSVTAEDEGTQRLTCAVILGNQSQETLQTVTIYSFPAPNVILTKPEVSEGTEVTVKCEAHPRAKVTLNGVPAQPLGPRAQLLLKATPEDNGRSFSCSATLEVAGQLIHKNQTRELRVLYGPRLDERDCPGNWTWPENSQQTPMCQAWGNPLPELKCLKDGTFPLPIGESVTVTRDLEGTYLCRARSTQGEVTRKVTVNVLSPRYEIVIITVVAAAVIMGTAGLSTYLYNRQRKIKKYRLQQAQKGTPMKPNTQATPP
Experiment: cell-based or functional assay
Positions of bridges follow the written chain, without caps; N, C: chain ends. No end group written: not given here.
The following binders are listed with their measured Experimental IC50 (µM), cellular aggregation blocking assay values.
Write the answer as a number in µM, unit excluded.

Some binders with recorded Experimental IC50 (µM), cellular aggregation blocking assay:
[[record]]
binder = "CLLRMRSAC (disulfide 1-9) [Table 1 peptide 1, CLLRMRSAC (SEQ ID NO:21)]"
observed_result = 480

[[record]]
binder = "CLLRMRAIC (disulfide 1-9) [Table 1 peptide 15, CLLRMRAIC (SEQ ID NO:35)]"
observed_result = 710

[[record]]
binder = "CLLKMRSAC (disulfide 1-9) [Table 1 peptide 6, CLLKMRSAC (SEQ ID NO:26)]"
observed_result = 105

[[record]]
binder = "CLLRMRSIC (disulfide 1-9) [Table 1 peptide 10, CLLRMRSIC (SEQ ID NO:30)]"
observed_result = 580

[[record]]
binder = "CLLRMKSAC (disulfide 1-9) [Table 1 peptide 7, CLLRMKSAC (SEQ ID NO:27)]"
observed_result = 90


Looking up CLLRMRSVC (disulfide 1-9) [Table 1 peptide 9, CLLRMRSVC (SEQ ID NO:29)] , I found its Experimental IC50 (µM), cellular aggregation blocking assay recorded as 700

Looking up CILKMKSAC (disulfide 1-9) [Table 1 peptide 16, CILKMKSAC (SEQ ID NO:36)] , I found its Experimental IC50 (µM), cellular aggregation blocking assay recorded as 40

Measured Experimental IC50 (µM), cellular aggregation blocking assay of CLIRMRSAC (disulfide 1-9) [Table 1 peptide 4, CLIRMRSAC (SEQ ID NO:24)] : 720
